molecular target: h-P2X7 (Homo sapiens, UniProt Q99572); test: Ca2+ flux assay h-P2X7
Sequence (Q99572 whole entry): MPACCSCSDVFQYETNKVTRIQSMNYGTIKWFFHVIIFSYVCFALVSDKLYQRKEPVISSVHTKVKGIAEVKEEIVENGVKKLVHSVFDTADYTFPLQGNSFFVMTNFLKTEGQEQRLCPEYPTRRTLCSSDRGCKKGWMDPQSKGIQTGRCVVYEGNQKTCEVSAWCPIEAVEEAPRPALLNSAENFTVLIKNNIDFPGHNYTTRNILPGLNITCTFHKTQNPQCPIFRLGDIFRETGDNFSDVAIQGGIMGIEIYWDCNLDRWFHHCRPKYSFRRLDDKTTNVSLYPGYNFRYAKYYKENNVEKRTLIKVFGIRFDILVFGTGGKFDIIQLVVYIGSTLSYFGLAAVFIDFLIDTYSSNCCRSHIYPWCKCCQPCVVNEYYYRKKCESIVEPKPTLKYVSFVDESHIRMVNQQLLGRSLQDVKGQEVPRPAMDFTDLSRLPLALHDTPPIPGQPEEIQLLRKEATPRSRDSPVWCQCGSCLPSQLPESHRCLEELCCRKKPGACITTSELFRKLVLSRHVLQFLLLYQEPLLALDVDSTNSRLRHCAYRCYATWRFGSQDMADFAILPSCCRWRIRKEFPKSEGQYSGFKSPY
assay_metric: IC50 (nM)
Reply numerically in nM, unit not repeated.

| compound | test_target | output_unit | IC50 |
| --- | --- | --- | --- |
| O=C(NC(=S)Nc1cc(Br)c(O)c(C(F)(F)F)c1)C12CC3CC(CC(C3)C1)C2 [Ie] | h-P2X7 (Homo sapiens, UniProt Q99572) | nM | 4020 |

// below: IC50 requested for another compound
## Input Which IC50 is reported for this compound? NS(=O)(=O)c1cccc(NC(=S)NC(=O)C23CC4CC(CC(C4)C2)C3)c1 [Ig]
## Output 829

---

Target: h-P2X2 (Homo sapiens, UniProt Q9UBL9)
Sequence (Q9UBL9 1-471): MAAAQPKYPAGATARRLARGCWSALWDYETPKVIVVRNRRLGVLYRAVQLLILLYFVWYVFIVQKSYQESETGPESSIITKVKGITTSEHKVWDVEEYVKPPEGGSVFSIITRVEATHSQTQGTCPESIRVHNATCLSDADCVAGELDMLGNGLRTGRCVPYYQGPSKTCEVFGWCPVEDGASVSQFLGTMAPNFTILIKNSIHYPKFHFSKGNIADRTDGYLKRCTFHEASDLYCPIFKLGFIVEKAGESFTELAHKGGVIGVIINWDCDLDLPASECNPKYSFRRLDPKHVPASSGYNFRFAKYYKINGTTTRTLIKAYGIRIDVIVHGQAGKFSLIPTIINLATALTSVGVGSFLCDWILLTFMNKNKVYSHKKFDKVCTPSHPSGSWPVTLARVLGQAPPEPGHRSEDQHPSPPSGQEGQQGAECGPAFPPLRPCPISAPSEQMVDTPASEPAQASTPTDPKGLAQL
Assay: Ca2+ flux assay h-P2X2
Settings: read-out: h-P2X2 % Inhibition
assay_metric: inhibition at 50 µM (%)
Reply numerically in %, unit not repeated.

Below are worked cases with known answers.
| smiles_data | test_target | inhibition at 50 µM, % |
| --- | --- | --- |
| O=C(NC(=S)Nc1cccnc1Cl)C12CC3CC(CC(C3)C1)C2 | h-P2X2 (Homo sapiens, UniProt Q9UBL9) | 13.2 |
| CC(C)c1ccc(NC(=S)NC(=O)C23CC4CC(CC(C4)C2)C3)c(Br)c1 | h-P2X2 (Homo sapiens, UniProt Q9UBL9) | 30.2 |
| O=C(NC(=S)Nc1ccc(Br)cc1)C12CC3CC(CC(C3)C1)C2 | h-P2X2 (Homo sapiens, UniProt Q9UBL9) | 36 |
| NS(=O)(=O)c1cccc(NC(=S)NC(=O)C23CC4CC(CC(C4)C2)C3)c1 | h-P2X2 (Homo sapiens, UniProt Q9UBL9) | 18.1 |
| O=C(NC(=S)Nc1ccccc1O)C12CC3CC(CC(C3)C1)C2 | h-P2X2 (Homo sapiens, UniProt Q9UBL9) | 32.6 |

## Input // lookup inhibition at 50 µM | system=h-P2X2 (Homo sapiens, UniProt Q9UBL9) | key= Cc1cc(Br)ccc1NC(=S)NC(=O)C12CC3CC(CC(C3)C1)C2
## Output 22.7

## Input // lookup inhibition at 50 µM | system=h-P2X2 (Homo sapiens, UniProt Q9UBL9) | key= O=C(NC(=S)Nc1cc(Br)ccc1Br)C12CC3CC(CC(C3)C1)C2
## Output 41.1

## Input // lookup inhibition at 50 µM | system=h-P2X2 (Homo sapiens, UniProt Q9UBL9) | key= O=C(NC(=S)Nc1ccc(O)cc1)C12CC3CC(CC(C3)C1)C2
## Output 37.9

## Input // lookup inhibition at 50 µM | system=h-P2X2 (Homo sapiens, UniProt Q9UBL9) | key= O=C(NC(=S)Nc1cccc(O)c1)C12CC3CC(CC(C3)C1)C2
## Output 32.6

## Input // lookup inhibition at 50 µM | system=h-P2X2 (Homo sapiens, UniProt Q9UBL9) | key= O=C(NC(=S)Nc1cccc2cccnc12)C12CC3CC(CC(C3)C1)C2
## Output 15.3

## Input // lookup inhibition at 50 µM | system=h-P2X2 (Homo sapiens, UniProt Q9UBL9) | key= O=C(NC(=S)Nc1cc(Br)c(O)c(C(F)(F)F)c1)C12CC3CC(CC(C3)C1)C2
## Output 30.5

## Input // lookup inhibition at 50 µM | system=h-P2X2 (Homo sapiens, UniProt Q9UBL9) | key= CN(C)CCCNC(=S)NC(=O)C12CC3CC(CC(C3)C1)C2
## Output 2.15

---

assay: MTT cytotoxicity assay, HeLa cell line; format: cell-based; conditions: human, HeLa cells, final concentration of 50 μM
Criterion: cytotoxicity at 24 h, 50 µM strictly less than 9%. Met: Y. Not met: N.

Solved entries:
| compound | assigned_label |
| --- | --- |
| O=C(NC(=S)Nc1ccc(Br)cc1)C12CC3CC(CC(C3)C1)C2 | Y |
| COc1ccc(NC(=S)NC(=O)C23CC4CC(CC(C4)C2)C3)cc1 | Y |
| Cc1cc(Br)ccc1NC(=S)NC(=O)C12CC3CC(CC(C3)C1)C2 | Y |
| O=C(NC(=S)Nc1ccccc1O)C12CC3CC(CC(C3)C1)C2 | N |
| CC(C)c1ccc(NC(=S)NC(=O)C23CC4CC(CC(C4)C2)C3)c(Br)c1 | N |

## Input Report whether reported cytotoxicity at 24 h, 50 µM is lower than 9% (strictly) for COc1ccc(NC(=S)NC(=O)C23CC4CC(CC(C4)C2)C3)cc1OC
## Output N

## Input Report whether reported cytotoxicity at 24 h, 50 µM is lower than 9% (strictly) for Cc1ccc(NC(=S)NC(=O)C23CC4CC(CC(C4)C2)C3)c(Br)c1
## Output N

## Input Report whether reported cytotoxicity at 24 h, 50 µM is lower than 9% (strictly) for O=C(NC(=S)Nc1ccc(O)cc1)C12CC3CC(CC(C3)C1)C2
## Output Y

## Input Report whether reported cytotoxicity at 24 h, 50 µM is lower than 9% (strictly) for Cc1ccc(C(=O)Nc2ccc(S(=O)(=O)O)c3cc(S(=O)(=O)O)cc(S(=O)(=O)O)c23)cc1NC(=O)c1cccc(NC(=O)Nc2cccc(C(=O)Nc3cc(C(=O)Nc4ccc(S(=O)(=O)O)c5cc(S(=O)(=O)O)cc(S(=O)(=O)O)c45)ccc3C)c2)c1 [Suramin, reference compound]
## Output N

## Input Report whether reported cytotoxicity at 24 h, 50 µM is lower than 9% (strictly) for O=C(NC(=S)Nc1cc(Cl)c(O)c(Cl)c1)C12CC3CC(CC(C3)C1)C2
## Output Y

## Input Report whether reported cytotoxicity at 24 h, 50 µM is lower than 9% (strictly) for O=C(NC(=S)Nc1cc(Br)c(O)c(C(F)(F)F)c1)C12CC3CC(CC(C3)C1)C2
## Output N

## Input Report whether reported cytotoxicity at 24 h, 50 µM is lower than 9% (strictly) for O=C(NC(=S)Nc1cccnc1Cl)C12CC3CC(CC(C3)C1)C2
## Output Y

## Input Report whether reported cytotoxicity at 24 h, 50 µM is lower than 9% (strictly) for O=C(NC(=S)Nc1cccc2cccnc12)C12CC3CC(CC(C3)C1)C2
## Output Y

## Input Report whether reported cytotoxicity at 24 h, 50 µM is lower than 9% (strictly) for CN(C)CCCNC(=S)NC(=O)C12CC3CC(CC(C3)C1)C2
## Output Y

## Input Report whether reported cytotoxicity at 24 h, 50 µM is lower than 9% (strictly) for O=C(NC(=S)Nc1cccc(O)c1)C12CC3CC(CC(C3)C1)C2
## Output N

## Input Report whether reported cytotoxicity at 24 h, 50 µM is lower than 9% (strictly) for NS(=O)(=O)c1cccc(NC(=S)NC(=O)C23CC4CC(CC(C4)C2)C3)c1
## Output N

## Input Report whether reported cytotoxicity at 24 h, 50 µM is lower than 9% (strictly) for COc1cccc(NC(=S)NC(=O)C23CC4CC(CC(C4)C2)C3)c1
## Output N

## Input Report whether reported cytotoxicity at 24 h, 50 µM is lower than 9% (strictly) for O=C(NC(=S)Nc1cc(Br)ccc1Br)C12CC3CC(CC(C3)C1)C2
## Output N

## Input Report whether reported cytotoxicity at 24 h, 50 µM is lower than 9% (strictly) for O=C(NC(=S)Nc1cc([N+](=O)[O-])ccc1Cl)C12CC3CC(CC(C3)C1)C2
## Output Y

---

target: h-P2X5 (Homo sapiens, UniProt Q93086); assay: Ca2+ flux assay h-P2X5
Sequence (Q93086 whole entry): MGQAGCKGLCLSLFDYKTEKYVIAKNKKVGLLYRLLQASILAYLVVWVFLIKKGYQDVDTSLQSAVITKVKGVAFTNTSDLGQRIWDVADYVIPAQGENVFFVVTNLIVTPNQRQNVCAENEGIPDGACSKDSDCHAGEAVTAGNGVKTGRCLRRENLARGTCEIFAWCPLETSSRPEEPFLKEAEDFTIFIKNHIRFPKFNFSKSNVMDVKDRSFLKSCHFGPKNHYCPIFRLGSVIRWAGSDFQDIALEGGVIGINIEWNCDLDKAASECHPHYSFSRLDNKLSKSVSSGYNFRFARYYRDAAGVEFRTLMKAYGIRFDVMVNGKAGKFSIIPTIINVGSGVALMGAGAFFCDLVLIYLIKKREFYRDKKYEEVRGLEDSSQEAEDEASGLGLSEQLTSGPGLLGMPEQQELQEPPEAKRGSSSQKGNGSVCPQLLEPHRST
Reported IC50 is given for each of the following molecules.
Reply numerically in µM, unit not repeated.

Below are worked cases with known answers.
| molecule | output_unit | test_result |
| --- | --- | --- |
| O=C(NC(=S)Nc1cc(Cl)c(O)c(Cl)c1)C12CC3CC(CC(C3)C1)C2 [Id] | µM | 3.4 |
| COc1ccc(NC(=S)NC(=O)C23CC4CC(CC(C4)C2)C3)cc1OC [Ik] | µM | 1.48 |

## Input Which IC50 is reported for this molecule? Cc1ccc(NC(=S)NC(=O)C23CC4CC(CC(C4)C2)C3)c(Br)c1 [Im]
## Output 6.04
